- Tested on: SK-MEL-28 melanoma
- Assay Procedure: NCI-60 one-dose screen, 48 h (100 = growth as untreated, 0 = no growth, -100 = all killed)
- Measurement Setup: 10 µM unless noted
This is part of a sample that, as a whole, favours compounds with a hit. Of some 83,000 tested, about 20% had one in any assay.
Collected growth values appear next to each entry.
// return numeric value only (unit: %, not printed)

Consider the reported growth for these compounds:
Q: Give recorded growth. N=C(N)c1ccc(-c2ccc(-c3cncc4ccccc34)s2)s1
Ans: -69.7

Q: Give recorded growth. C#CCOc1nc(C)cc(C)c1C#N
Ans: 111

Q: Give recorded growth. COc1cc(-c2n/c(=C\c3c(O)[nH]c4ccc(Cl)cc34)cc3c2=Nc2ccccc2-3)cc(OC)c1OC
Ans: 16.5

Q: Give recorded growth. COc1ccc(C2=NN(C(=O)c3cc(OC)c(OC)c(OC)c3)C(c3ccc(Cl)cc3)C2)cc1OC (stereo not given)
Ans: 46.1

Continuing:
Q: Give recorded growth. N#CC1=C(c2ccc(Br)cc2)NC(SCC(=O)c2ccc(Br)cc2)NC1=O (stereo not given)
Ans: 111

Q: Give recorded growth. CN(Cc1cnc2nc(N)nc(N)c2n1)c1ccc(C(=O)N[C@@H](CCc2nn[nH]n2)c2nn[nH]n2)cc1
Ans: 103

Q: Give recorded growth. COc1cc(/C=C/C(=O)c2cccc(-n3cc(-c4ccccc4)[nH]c3=O)c2)ccc1O
Ans: 70.2

Q: Give recorded growth. O=[N+]([O-])c1ccc(C2CC(c3ccccc3)=Nc3ccccc3S2)cc1 (stereo not given)
Ans: 116

Q: Give recorded growth. Clc1cc(Cl)cc(Nc2ccc3cc(OCCCN4CCOCC4)ccc3n2)c1
Ans: 27.8

Q: Give recorded growth. COc1cc(/C=C/C(=O)c2c(C)nc3ccccc3c2C)ccc1OCCCN1CCN(C(=O)c2ccco2)CC1
Ans: -29
